Measured viability at 28.5 h, 10 µM, listed per entry for reference.
protocol-details: in vitro
run-parameters: human, hela cells, % viability
State the answer as a number, implicitly in %.

Consider the worked cases shown below.
[
  {
    "compound": "CC(=O)Nc1cc(Cl)ccc1OS(=O)(=O)c1ccc(Cl)cc1",
    "unit-spec": "%",
    "viability at 28.5 h, 10 µM": 90.3
  },
  {
    "compound": "Cc1noc(C)c1S(=O)(=O)Nc1nnn[nH]1",
    "unit-spec": "%",
    "viability at 28.5 h, 10 µM": 112
  },
  {
    "compound": "Cc1cc(C)c2c(c1)-c1c(ssc1=S)C(C)(C)N2C(=O)CSc1nnc[nH]1",
    "unit-spec": "%",
    "viability at 28.5 h, 10 µM": 88.5
  },
  {
    "compound": "CC(c1ccc(F)c(F)c1)N(C)C(=O)Cn1cnnc1[S+](C)[O-] (stereo not drawn)",
    "unit-spec": "%",
    "viability at 28.5 h, 10 µM": 105
  },
  {
    "compound": "Cc1[nH]c2cccc(C(=O)N(C)CCc3cn[nH]c3)c2c1C",
    "unit-spec": "%",
    "viability at 28.5 h, 10 µM": 85.4
  },
  {
    "compound": "CN(C)CCN(C(=O)Cc1ccc2c(c1)CCC2)C1CCN(C)CC1",
    "unit-spec": "%",
    "viability at 28.5 h, 10 µM": 84.6
  }
]

Could you now consider this next compound?
**Q:** Recorded viability at 28.5 h, 10 µM of COc1cccc(NC(=O)N2CCC(n3c(=O)n(C(=O)Nc4cccc(OC)c4)c4ccccc43)CC2)c1 , please.
**A:** 94.8

====

protocol-details: in vitro
run-parameters: human, hela cells, % viability
attribute-measured: viability at 28.5 h, 10 µM (%)
State the answer as a number, implicitly in %.

[
  {
    "compound": "O=C(O)c1cccc(NS(=O)(=O)c2c(Cl)cc(C(F)(F)F)cc2Cl)c1",
    "viability at 28.5 h, 10 µM (%)": 96.3
  },
  {
    "compound": "O=C(COC(=O)CN1C(=O)C(=O)c2ccccc21)Nc1cccc2ccccc12",
    "viability at 28.5 h, 10 µM (%)": 90.5
  },
  {
    "compound": "COc1ccc(Oc2cncc(OC3CCN(CC4CC4)C3)n2)cc1OC (stereo not drawn)",
    "viability at 28.5 h, 10 µM (%)": 89.3
  },
  {
    "compound": "OCCN(CC#CC(O)(c1ccccc1)c1cccc(F)c1)CCO (stereo not drawn) [CBK301210C]",
    "viability at 28.5 h, 10 µM (%)": 91.2
  },
  {
    "compound": "CC(C)(C)c1ccc(OCC(O)CNS(=O)(=O)O)cc1 (stereo not drawn) [CBK261169N]",
    "viability at 28.5 h, 10 µM (%)": 102
  },
  {
    "compound": "O=C(/C=C/c1ccc(Cl)cc1Cl)NC(=S)Nc1ccccc1F",
    "viability at 28.5 h, 10 µM (%)": 108
  },
  {
    "compound": "O=C(CSc1ncnc2ccccc12)Nc1nc2ccccc2s1",
    "viability at 28.5 h, 10 µM (%)": 85.5
  },
  {
    "compound": "COc1ccc([C@@]23CC[C@@H](NC(=O)Nc4cccc(S(=O)(=O)C(F)(F)F)c4)C[C@@H]2N(C)CC3)cc1OC [CBK051275T]",
    "viability at 28.5 h, 10 µM (%)": 99
  }
]

Could you now consider this next compound?
**Q:** Recorded viability at 28.5 h, 10 µM of O=C(Nc1nc(-c2cc3ccccc3o2)cs1)c1ccc(F)cc1 , please.
**A:** 114
